The reported numbers originate from patent US20230295310A1.

Molecular target: T1, human CD3 expressed on cells (Jurkat cells; human primary T cells) (human, UniProt P07766 23-207; P04234 22-171; P09693 23-182)
T1 construct: whole, on cells
T1 sequence (P07766 23-207, chain 1 of 3): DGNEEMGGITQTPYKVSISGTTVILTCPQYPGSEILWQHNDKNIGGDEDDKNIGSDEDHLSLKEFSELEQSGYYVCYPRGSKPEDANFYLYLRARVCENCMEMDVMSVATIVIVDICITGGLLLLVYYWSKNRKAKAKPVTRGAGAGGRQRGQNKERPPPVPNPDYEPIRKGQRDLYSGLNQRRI
T1 sequence (P04234 22-171, chain 2 of 3): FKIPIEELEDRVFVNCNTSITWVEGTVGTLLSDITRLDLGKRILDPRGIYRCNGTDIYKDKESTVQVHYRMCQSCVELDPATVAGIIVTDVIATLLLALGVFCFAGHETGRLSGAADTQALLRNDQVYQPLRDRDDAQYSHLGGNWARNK
T1 sequence (P09693 23-182, chain 3 of 3): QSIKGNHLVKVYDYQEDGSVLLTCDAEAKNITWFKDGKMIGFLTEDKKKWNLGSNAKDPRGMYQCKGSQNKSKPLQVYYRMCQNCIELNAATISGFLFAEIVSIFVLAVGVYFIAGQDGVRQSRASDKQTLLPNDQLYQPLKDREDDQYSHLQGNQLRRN
Test: flow cytometry, 25 nM, Jurkat cells
Binding (FOI) listing for selected binders.
Express it in FOI; write the number only.

| Binder | Binding (FOI) |
| --- | --- |
| mAb 178 (antibody, V domains shown, VH/VL only) VH: EVQLVESGGGLVQPGRSLRLSCAASGFTFDDYTMHWVRQAPGKGLEWVSDISWNSGTIGYADSVKGRFTISRDNAKNSLYLQMNSLRAEDTALYYCVKDSSGYGHYYKYYMDVWGKGTTVTVSS VL: DIQMTQSPSSLSASVGDRVTITCRASQSISNYLNWYQQKAGKVPKVLIYGSSSLQSGVPSRFSGSGSGTDFTLTISSLQPEDFASYYCQQTYSSPLTFGGGTKVDFK | 128 |
| mAb 287 (antibody, V domains shown, VH/VL only) VH: EVQLVESGGGVVRPGGSLRLSCAASGFTFDDYGMSWVRQAPGKGLEWVSGISWNGGSTGYADSVKGRFTISRDNAKNSLYLQMNSLRAEDTALYHCARDGVPVVKRRYYYYYMDVWGKGTTVTVSS VL: EIVLTQSPDFQSVTPKEKVTITCRASQSIGSSLHWYQQKPDQSPKLLIKYASQSFSGVPSRFSGSGSGTDFTLTINSLEAEDAATYYCHQSASLPQTFGQGTKVEIK | 156 |
| mAb 195 (antibody, V domains shown, VH/VL only) VH: QEQLVESGGGVVQSGRSLRLSCVASGFKFSGYGMHWVRQAPGKGLEWVAIIYYDGKNKYYADSVKGRFTISRDNSKNTLYLQMNSLRAEDTAVYYCTRGAGYNWFDSWGQGTLVTVSS VL: EIVMTQSPATLSVSPGERATLSCRASQSVRNNLAWYQQKPGQAPRLLIYGVSTRATAFPARFSGSGSGTEFTLTISSLQSEDFAVYYCQQYNNWPLTFGGGTKVEIK | 170 |
| mAb 255 (antibody, V domains shown, VH/VL only) VH: QVQVQQSGPGLVKPSQTLSLTCAISGDSVSSKYASWNWIRQSPSRGLEWLGRTYYRSKWYNDFAVSVKSRITINADTSKNQFSLHLSSVTPEDTAIYFCAREANGRGYFYYMDVWGKGTTVTVSS VL: EIVLTQSPDFQSVTPKEKVTITCRASQSIGSSLHWYQQKPDQSPKLLIKYASQSISGVPSRFSGSGSGTVFTLTINSLEAEDAAAYFCHQSSGSPHTFGGGTKVEIK | 162 |

Sure, the documented Binding (FOI) for mAb 256 (antibody, V domains shown, VH/VL only) VH: QVQLQQSGPGLVKPSQTLSLTCAISGDSVSSNYASWNWIRQSPSRGLEWLGRTYYRSKWYNDFAVSVKSRVTINADTSKNQFSLHLSSVTPEDTAIYFCAREANGRGYFYYMDVWGKGTTVTVSS VL: EIVLTQSPDFQSVTPKEKVTITCRASQSIGSSLHWYQQKPVQSPKLLIKYASQSISGVPSRFSGSGSGTVFTLTINSLEAEDAAAYFCHQSSGSPHTFGGGTKVEIK is 61.5
